Sourced from patent US8545876B1

- assay-explanation: Stability in mouse plasma
- Type: in vitro ADME
- run-conditions: 24 hour incubation in mouse plasma, 37° C.
Task for the reader: assign each of the following compounds its reported Prodrug levels (% remaining), Plasma.
Enter your answer as a number in %; do not include the unit.

Supply measured Prodrug levels (% remaining), Plasma of CC(=O)O[C@@]12CO[C@@H]1C[C@H](O)[C@@]1(C)C(=O)[C@H](O)C3=C(C)[C@@H](OC(=O)[C@H](OC(=O)CCCN4CCCCC4)[C@@H](NC(=O)OC(C)(C)C)c4ccccc4)C[C@@](O)([C@@H](OC(=O)c4ccccc4)C12)C3(C)C (stereo partly drawn) in your reply.
8

Supply measured Prodrug levels (% remaining), Plasma of CC(=O)O[C@@]12CO[C@@H]1C[C@H](O)[C@@]1(C)C(=O)[C@H](O)C3=C(C)[C@@H](OC(=O)[C@H](OC(=O)CN4CCN(C)CC4)[C@@H](NC(=O)OC(C)(C)C)c4ccccc4)C[C@@](O)([C@@H](OC(=O)c4ccccc4)C12)C3(C)C (stereo partly drawn) in your reply.
31

Supply measured Prodrug levels (% remaining), Plasma of CC(=O)O[C@@]12CO[C@@H]1C[C@H](O)[C@@]1(C)C(=O)[C@H](O)C3=C(C)[C@@H](OC(=O)[C@H](OC(=O)CCCCN4CCN(C)CC4)[C@@H](NC(=O)OC(C)(C)C)c4ccccc4)C[C@@](O)([C@@H](OC(=O)c4ccccc4)C12)C3(C)C (stereo partly drawn) in your reply.
29

Supply measured Prodrug levels (% remaining), Plasma of CC(=O)O[C@@]12CO[C@@H]1C[C@H](O)[C@@]1(C)C(=O)[C@H](O)C3=C(C)[C@@H](OC(=O)[C@H](OC(=O)CCCN4CCN(C)CC4)[C@@H](NC(=O)OC(C)(C)C)c4ccccc4)C[C@@](O)([C@@H](OC(=O)c4ccccc4)C12)C3(C)C (stereo partly drawn) in your reply.
12

Supply measured Prodrug levels (% remaining), Plasma of CC(=O)O[C@@]12CO[C@@H]1C[C@H](O)[C@@]1(C)C(=O)[C@H](O)C3=C(C)[C@@H](OC(=O)[C@H](OC(=O)CCN4CCOCC4)[C@@H](NC(=O)OC(C)(C)C)c4ccccc4)C[C@@](O)([C@@H](OC(=O)c4ccccc4)C12)C3(C)C (stereo partly drawn) in your reply.
0

Supply measured Prodrug levels (% remaining), Plasma of CC(=O)O[C@@]12CO[C@@H]1C[C@H](O)[C@@]1(C)C(=O)[C@H](O)C3=C(C)[C@@H](OC(=O)[C@H](OC(=O)CN4CCOCC4)[C@@H](NC(=O)OC(C)(C)C)c4ccccc4)C[C@@](O)([C@@H](OC(=O)c4ccccc4)C12)C3(C)C (stereo partly drawn) in your reply.
45

Supply measured Prodrug levels (% remaining), Plasma of CC(=O)O[C@@]12CO[C@@H]1C[C@H](O)[C@@]1(C)C(=O)[C@H](O)C3=C(C)[C@@H](OC(=O)[C@H](OC(=O)CCCN4CCOCC4)[C@@H](NC(=O)OC(C)(C)C)c4ccccc4)C[C@@](O)([C@@H](OC(=O)c4ccccc4)C12)C3(C)C (stereo partly drawn) in your reply.
64

Supply measured Prodrug levels (% remaining), Plasma of CC(=O)O[C@@]12CO[C@@H]1C[C@H](O)[C@@]1(C)C(=O)[C@H](O)C3=C(C)[C@@H](OC(=O)[C@H](OC(=O)CN4CCCCC4)[C@@H](NC(=O)OC(C)(C)C)c4ccccc4)C[C@@](O)([C@@H](OC(=O)c4ccccc4)C12)C3(C)C (stereo partly drawn) in your reply.
4

====

Task for the reader: assign each of the following molecules its reported solubility.
- assay-explanation: Kinetic aqueous solubility of docetaxel derivatives in acetate buffer
- run-conditions: 10 mM acetate buffer, pH 5, aqueous buffer, kinetic from dmso stock
Enter your answer as a number in µg/mL; do not include the unit.

Supply measured solubility of CC(=O)O[C@@]12CO[C@@H]1C[C@H](O)[C@@]1(C)C(=O)[C@H](O)C3=C(C)[C@@H](OC(=O)[C@H](OC(=O)CN4CCOCC4)[C@@H](NC(=O)OC(C)(C)C)c4ccccc4)C[C@@](O)([C@@H](OC(=O)c4ccccc4)C12)C3(C)C (some centres unmarked) in your reply.
140

Supply measured solubility of CC(=O)O[C@@]12CO[C@@H]1C[C@H](O)[C@@]1(C)C(=O)[C@H](O)C3=C(C)[C@@H](OC(=O)[C@H](OC(=O)CN4CCN(C)CC4)[C@@H](NC(=O)OC(C)(C)C)c4ccccc4)C[C@@](O)([C@@H](OC(=O)c4ccccc4)C12)C3(C)C (some centres unmarked) in your reply.
2000

Supply measured solubility of CC(=O)O[C@@]12CO[C@@H]1C[C@H](O)[C@@]1(C)C(=O)[C@H](O)C3=C(C)[C@@H](OC(=O)[C@H](OC(=O)CCN4CCOCC4)[C@@H](NC(=O)OC(C)(C)C)c4ccccc4)C[C@@](O)([C@@H](OC(=O)c4ccccc4)C12)C3(C)C (some centres unmarked) in your reply.
480

Supply measured solubility of CC(=O)O[C@@]12CO[C@@H]1C[C@H](O)[C@@]1(C)C(=O)[C@H](O)C3=C(C)[C@@H](OC(=O)[C@H](OC(=O)CCCN4CCOCC4)[C@@H](NC(=O)OC(C)(C)C)c4ccccc4)C[C@@](O)([C@@H](OC(=O)c4ccccc4)C12)C3(C)C (some centres unmarked) in your reply.
120

Supply measured solubility of CC(=O)O[C@@]12CO[C@@H]1C[C@H](O)[C@@]1(C)C(=O)[C@H](O)C3=C(C)[C@@H](OC(=O)[C@H](OC(=O)CCCCN4CCN(C)CC4)[C@@H](NC(=O)OC(C)(C)C)c4ccccc4)C[C@@](O)([C@@H](OC(=O)c4ccccc4)C12)C3(C)C (some centres unmarked) in your reply.
2500

====

- assay-explanation: Kinetic aqueous solubility of docetaxel derivatives in acetate buffer
- run-conditions: pH 5, aqueous buffer, kinetic from dmso stock
recorded-metric: solubility (µg/mL)
Enter your answer as a number in µg/mL; do not include the unit.

Supply measured solubility of CC(=O)O[C@@]12CO[C@@H]1C[C@H](O)[C@@]1(C)C(=O)[C@H](O)C3=C(C)[C@@H](OC(=O)[C@H](OC(=O)CCCN4CCCCC4)[C@@H](NC(=O)OC(C)(C)C)c4ccccc4)C[C@@](O)([C@@H](OC(=O)c4ccccc4)C12)C3(C)C (stereo partly shown) in your reply.
1900

Supply measured solubility of CC(=O)O[C@@]12CO[C@@H]1C[C@H](O)[C@@]1(C)C(=O)[C@H](O)C3=C(C)[C@@H](OC(=O)[C@H](OC(=O)CCCCN4CCCCC4)[C@@H](NC(=O)OC(C)(C)C)c4ccccc4)C[C@@](O)([C@@H](OC(=O)c4ccccc4)C12)C3(C)C (stereo partly shown) in your reply.
1000

Supply measured solubility of CC(=O)O[C@@]12CO[C@@H]1C[C@H](O)[C@@]1(C)C(=O)[C@H](O)C3=C(C)[C@@H](OC(=O)[C@H](OC(=O)CN4CCCCC4)[C@@H](NC(=O)OC(C)(C)C)c4ccccc4)C[C@@](O)([C@@H](OC(=O)c4ccccc4)C12)C3(C)C (stereo partly shown) in your reply.
500

Supply measured solubility of CC(=O)O[C@@]12CO[C@@H]1C[C@H](OC(=O)CCCN1CCN(C)CC1)[C@@]1(C)C(=O)[C@H](O)C3=C(C)[C@@H](OC(=O)[C@H](O)[C@@H](NC(=O)OC(C)(C)C)c4ccccc4)C[C@@](O)([C@@H](OC(=O)c4ccccc4)C12)C3(C)C (stereo partly shown) in your reply.
3000

====

- assay-explanation: Single dose tolerability (MTD) study
- Format: in vivo, SCID/Rag2-M mice
- run-conditions: SCID/Rag2-M, mouse, in vivo, iv, single dose i.v., mg/kg prodrug; read-out: MTD expressed as prodrug
recorded-metric: MTD at 14 days (mg/kg)
Enter your answer as a number in mg/kg; do not include the unit.

Supply measured MTD at 14 days of CC(=O)O[C@@]12CO[C@@H]1C[C@H](O)[C@@]1(C)C(=O)[C@H](O)C3=C(C)[C@@H](OC(=O)[C@H](OC(=O)CCCN4CCN(C)CC4)[C@@H](NC(=O)OC(C)(C)C)c4ccccc4)C[C@@](O)([C@@H](OC(=O)c4ccccc4)C12)C3(C)C (stereo partly shown) in your reply.
20
